target: UniProtKB P11229; assay: biochemical
Description: Displacement of [3H]NMS from human muscarinic M1 acetylcholine receptor expressed in CHO cell membranes by radioligand binding assay
pKd: −log10 of the molar value.

smilesCode | subjectOfTest | pKd
CC[C@@H]1SC2(CCNCC2)N(CCCCCCCCOc2ccc3cc(Cn4cc(C(=O)O)c(=O)c5cccc(F)c54)ccc3c2)C1=O | UniProtKB P11229 | 6.78
C[N+](C)(CC#CCOC1=NOCC1)CCCCNC(=O)c1cn(Cc2ccccc2)c2cc(Br)ccc2c1=O | UniProtKB P11229 | 6.85
C[N+](C)(CC#CCOC1=NOCC1)CCCCNC(=O)c1cn(Cc2ccccc2)c2cc(Cl)c(F)cc2c1=O | UniProtKB P11229 | 7.14
C[N+](C)(CC#CCOC1=NOCC1)CCCCNC(=O)c1cn(Cc2ccccc2)c2c(F)cccc2c1=O | UniProtKB P11229 | 6.82
C[N+](C)(C)CC#CCOC1=NOCC1 | UniProtKB P11229 | 5.67

----------
Target: UniProt:P11229
Sequence (whole entry): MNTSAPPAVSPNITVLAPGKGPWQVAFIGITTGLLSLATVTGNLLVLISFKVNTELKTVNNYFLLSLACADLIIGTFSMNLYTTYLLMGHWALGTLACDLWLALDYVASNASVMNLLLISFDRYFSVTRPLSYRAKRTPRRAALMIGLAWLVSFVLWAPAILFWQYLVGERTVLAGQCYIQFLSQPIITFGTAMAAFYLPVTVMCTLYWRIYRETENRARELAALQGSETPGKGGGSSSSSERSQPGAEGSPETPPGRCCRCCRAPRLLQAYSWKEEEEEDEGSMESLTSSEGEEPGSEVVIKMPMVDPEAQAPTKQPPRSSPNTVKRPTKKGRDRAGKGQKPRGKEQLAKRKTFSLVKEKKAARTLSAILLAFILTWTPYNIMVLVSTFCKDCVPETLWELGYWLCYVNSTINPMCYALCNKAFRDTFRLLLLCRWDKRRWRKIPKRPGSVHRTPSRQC
Assay: Agonist activity at human muscarinic M1 acetylcholine receptor expressed in CHO cells assessed as increase in IP1 accumulation at 1 uM incubated for 30 mins by FRET based HTRF assay
Type: functional, cell-based
Activity calls are given as the source filed them. The calls are words filed in the database; no cut-off is given here.

smilesCode | Activity
O=C(NCCCCCCBr)c1cn(Cc2ccccc2)c2c(F)cccc2c1=O | inactive
O=C(NCCCCCCBr)c1cn(Cc2ccccc2)c2cc(Cl)c(F)cc2c1=O | inactive
O=C(NCCCCBr)c1cn(Cc2ccccc2)c2cc(Br)ccc2c1=O | inactive
O=C(NCCCCCCBr)c1cn(Cc2ccccc2)c2cc(Br)ccc2c1=O | inactive
O=C(NCCCCBr)c1cn(Cc2ccccc2)c2cc(Cl)c(F)cc2c1=O | inactive
COc1ccc(Cn2cc(C(=O)O)c(=O)c3ccccc32)cc1 | inactive
O=C(NCCCCBr)c1cn(Cc2ccccc2)c2c(F)cccc2c1=O | inactive
